# study.target: thrombin (human, UniProt P00734;P00734 315-363;364-622)
# measurement.description: whispering gallery mode microsphere resonator

| binder | Kd |
| --- | --- |
| CCAACCCAACGGTTGGTGTGGTTGG (structured_DNA, 5' amino) [anti-thrombin aptamer oligonucleotide] | ~1 µM |
